test system: P. falciparum Dd2 (PfLuc) line expressing firefly luciferase, asexual blood stage; assay: microbe, parasite or virus in culture; format: cell-based, Plasmodium falciparum; details: Plasmodium falciparum, DD2, read-out: CDD P. falciparum Luciferase ABS 11-pt Reconfirmation Dose Response (48hr): IC50 (μM); 11-pt dose response, 48hr
So basically, if IC50 comes in under 2 µM it's Yes, and if it's 2 µM or more it's No.

Example results:
compound	study-system	qualitative-label
FC(F)(F)c1cc(C2CCNCC2)nc(-c2ccsc2)n1 [DDD01058935]	P. falciparum Dd2 (PfLuc) line expressing firefly luciferase, asexual blood stage	No
NC(=O)c1cccc2nc([C@H]3CCN(Cc4ccccn4)C3)[nH]c12 [DDD01025389]	P. falciparum Dd2 (PfLuc) line expressing firefly luciferase, asexual blood stage	Yes
CC(NCC1CCN(CCO)CC1)c1ccc(Cl)cc1 (centres unmarked) [DDD01073718]	P. falciparum Dd2 (PfLuc) line expressing firefly luciferase, asexual blood stage	No

query: Is the reported IC50 for Cn1ccnc1CN(Cc1ccccn1)Cc1ccccc1Cl [DDD01058741] strictly below 2 µM?
result: No

query: Is the reported IC50 for COc1ccc2[nH]c(C[C@@H]3C[C@@H](C(C)C)[C@H](CN(C)C)C=C3C)nc2c1 [DDD01025345] strictly below 2 µM?
result: No

query: Is the reported IC50 for CCN(CC)CCNS(=O)(=O)c1cccc(CSC)c1 [DDD01038216] strictly below 2 µM?
result: No

query: Is the reported IC50 for Cc1cc(-n2cccn2)ccc1CN1CCOCC(CN(C)C)C1 (centres unmarked) [DDD01247138] strictly below 2 µM?
result: No

query: Is the reported IC50 for Cc1nn(C)cc1C1=NS(=O)(=O)N(C)C(C(=O)Nc2ccc(Cl)cc2)=C1 [DDD01058696] strictly below 2 µM?
result: Yes

query: Is the reported IC50 for COc1ccc(N2CCCC3(C2)CN(c2nncs2)CCO3)cc1 (centres unmarked) [DDD01034473] strictly below 2 µM?
result: Yes

query: Is the reported IC50 for Clc1ccc(C2(CNC3=NCCN3)CCCC2)cc1 [DDD01067443] strictly below 2 µM?
result: No

---

target: recombinant firefly luciferase (Photinus pyralis, UniProt P08659); assay: biochemical; details: dose response, maximum inhibition; read-out: rLuc inhibition dose response: Maximum inhibition (%)
Sequence (P08659 whole entry): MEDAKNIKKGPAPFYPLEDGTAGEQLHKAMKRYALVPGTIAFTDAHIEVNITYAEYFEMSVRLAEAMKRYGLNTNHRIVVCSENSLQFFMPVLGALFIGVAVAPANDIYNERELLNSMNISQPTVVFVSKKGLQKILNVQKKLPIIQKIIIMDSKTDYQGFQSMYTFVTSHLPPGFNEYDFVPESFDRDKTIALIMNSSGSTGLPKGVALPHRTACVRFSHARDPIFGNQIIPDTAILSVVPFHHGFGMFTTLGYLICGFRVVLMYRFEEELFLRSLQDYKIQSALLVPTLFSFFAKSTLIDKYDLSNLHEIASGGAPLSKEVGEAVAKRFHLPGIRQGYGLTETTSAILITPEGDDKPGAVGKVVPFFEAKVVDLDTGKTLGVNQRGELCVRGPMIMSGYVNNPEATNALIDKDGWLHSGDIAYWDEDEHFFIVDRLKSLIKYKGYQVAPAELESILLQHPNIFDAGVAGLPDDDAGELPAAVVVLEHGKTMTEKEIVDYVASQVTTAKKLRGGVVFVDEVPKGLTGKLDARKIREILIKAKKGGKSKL
property: Emax (%)
Write the answer as a number in %, unit excluded.

A selection of reference data follows.
compound	property	obs-value
Fc1ccc(N2CCCN(c3ccc(Cn4ccnc4)cn3)CC2)cc1 [UCSD-0828381]	Emax	34.7
CCc1cnc(N)nc1NC(C)c1ccc(C)c(C)c1 (centres unmarked) [UCSD-0831195]	Emax	17.1
COc1cc(C)c(CN2CCc3nc4ccsc4c(=O)n3CC2)cc1C [UCSD-0801369]	Emax	5.88
COc1c(C)cnc(CN2CCC(N(C)C(C)C(N)=O)CC2)c1C (centres unmarked) [UCSD-0844796]	Emax	-2.93

// moving on: another record for Emax
query: Using the record for Cc1cc(CN2CCN(C(c3ccccc3)c3ccccc3)CC2)no1 [UCSD-0846071] , report its Emax.
result: 14.1

---

Measured Emax of individual entries
test system: P. falciparum Dd2 (PfLuc) line expressing firefly luciferase, asexual blood stage; assay: microbe, parasite or virus in culture; format: cell-based, Plasmodium falciparum; details: Plasmodium falciparum, DD2; 11-pt dose response, 96hr; read-out: P. falciparum Luciferase ABS 11-pt Reconfirmation Dose Response (96hr): Maximum inhibition (%)
Write the answer as a number in %, unit excluded.

A selection of reference data follows.
compound	units-symbol	Emax
Cc1cc(Cc2cccc(C(F)(F)F)c2)cc(C2CCCNC2)n1 (centres unmarked)	%	100
Clc1cccc(C[C@@H]2NCCC[C@@H]2Nc2ccccc2)c1	%	101
COc1cccc(-n2ccc3nc(N4CCCC4)ncc3c2=O)c1	%	98.6
Cc1cc(NC(=O)NC2CCN(C(C)C)CC2)c2ncccc2c1	%	86.3
COc1ccnc(CN2CCCC(CCc3ccccc3)C2)c1OC (centres unmarked)	%	99.3
Cc1cc(S(=O)(=O)NCC2CNCCOC2)c(C)cc1Cl (centres unmarked)	%	89
Cc1cc(Cl)ccc1S(=O)(=O)NCC(C)N1CCN(C)CC1 (centres unmarked)	%	86.6
CN(Cc1ccccc1-n1cccn1)C[C@@H]1CCCN2CCCC[C@H]12	%	73.6
OC1(c2ccc(F)cc2)CCN(Cc2ccccc2N2CCCC2)CC1	%	94.3
CCC(NCc1ccccc1Cl)c1ccccc1OCC(=O)NC (centres unmarked)	%	86.1

query: Kindly state the measured Emax obtained for c1ccc(C2CN(C3CC3)CC3(CCN(Cc4cscn4)CC3)C2)cc1 (centres unmarked) with P. falciparum Dd2 (PfLuc) line expressing firefly luciferase, asexual blood stage.
result: 96.3

query: Kindly state the measured Emax obtained for Cc1cccc(CN2CCC(Cc3ccccc3F)CC2)n1 with P. falciparum Dd2 (PfLuc) line expressing firefly luciferase, asexual blood stage.
result: 100

query: Kindly state the measured Emax obtained for O=C(C1CNCCO1)N1CCCC(c2ccccc2)(c2ccccc2)C1 (centres unmarked) with P. falciparum Dd2 (PfLuc) line expressing firefly luciferase, asexual blood stage.
result: 83.1

query: Kindly state the measured Emax obtained for CCC(CNC(=O)CNC(C)=O)Oc1cccc(F)c1 (centres unmarked) with P. falciparum Dd2 (PfLuc) line expressing firefly luciferase, asexual blood stage.
result: 83.4

query: Kindly state the measured Emax obtained for CCc1ccc(-c2cc(C(F)(F)F)nc(N3CCC(N)CC3)n2)cc1 with P. falciparum Dd2 (PfLuc) line expressing firefly luciferase, asexual blood stage.
result: 100

query: Kindly state the measured Emax obtained for CCc1[nH]c2c(CNc3cc(C)nc(NC)n3)cc(C)cc2c1C with P. falciparum Dd2 (PfLuc) line expressing firefly luciferase, asexual blood stage.
result: 45.4

query: Kindly state the measured Emax obtained for COCCOc1ccccc1CNCC1COC2(CCCC2)O1 (centres unmarked) with P. falciparum Dd2 (PfLuc) line expressing firefly luciferase, asexual blood stage.
result: 75.6

query: Kindly state the measured Emax obtained for COc1ccc(NC(=O)Nc2cnc(N3CCN(C)CC3)nc2)cc1Cl with P. falciparum Dd2 (PfLuc) line expressing firefly luciferase, asexual blood stage.
result: 57.8

query: Kindly state the measured Emax obtained for Fc1ccc(C2(CNC3=NCCN3)CCCC2)cc1 with P. falciparum Dd2 (PfLuc) line expressing firefly luciferase, asexual blood stage.
result: 95.9

query: Kindly state the measured Emax obtained for CN1CCN(c2ccccc2NC(=O)NCCc2ccccc2)CC1 with P. falciparum Dd2 (PfLuc) line expressing firefly luciferase, asexual blood stage.
result: 89.4

Data provenance: paper PMC7155171
